B1: CPEB3 Ribozyme (parent)
chain: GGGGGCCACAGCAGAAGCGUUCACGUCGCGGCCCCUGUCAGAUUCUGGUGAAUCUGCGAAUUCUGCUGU

- Variants of: B1
- Procedure text: self-cleavage, relative activity (ratio to wild type); higher = more cleavage; co-transcriptional
Reported endpoint: self-cleavage
Quick one: just the number, no unit, thanks!

Some solved entries appear below for comparison.
> print(dat)
   variant.description  reported.endpoint  test.result
1            C33G C34A      self-cleavage        0.253
2            C22G C34U      self-cleavage        0.203
3            G58C U69C      self-cleavage         1.07

## Task Output measured self-cleavage for this item: U36A U44G
## Result 0.21

## Task Output measured self-cleavage for this item: G19A A51C
## Result 0.161

## Task Output measured self-cleavage for this item: G2U A59G
## Result 0.0714

## Task Output measured self-cleavage for this item: U20A A23G
## Result 0.041

## Task Output measured self-cleavage for this item: G41A A59U
## Result 0.332

## Task Output measured self-cleavage for this item: C29U U64G
## Result 0.206

## Task Output measured self-cleavage for this item: G28A U49A
## Result 0.181

## Task Output measured self-cleavage for this item: G68C
## Result 1

Source of measurements: the RNAGym collection of RNA variant scans (doi:10.7554/elife.80360)
